Entry source: patent US8530650B2

Target: recombinant autotaxin (Homo sapiens, UniProt Q13822)
Assay: Autotaxin assay (Amplex Red, LPC substrate)
Conditions: 75 μM LPC, Amplex Red fluorescence, ten 1:3 dilutions starting at 30 μM
pIC50: −log10 of the molar value.
Would you kindly list pIC50 for each of these compounds?

Name the reported pIC50 value associated with the compound `COc1ccc(Nc2nccc3nc(NCc4ccccc4Cl)ncc23)c(OC)c1`
> 4.52

Would you mind doing `CN(C)CCNC(=O)C1CCN(c2nccc3nc(NCc4ccccc4Cl)ncc23)CC1` as well?
> 5.00

Would you mind doing `Cc1ccc(CNc2ncc3c(Nc4ccc(F)cc4C)nccc3n2)cc1` as well?
> 4.52

Would you mind doing `CCOCCCNC(=O)C1CCN(c2nccc3nc(NCc4ccccc4Cl)ncc23)CC1` as well?
> 5.30

Would you mind doing `O=C(O)C1CCN(c2nccc3nc(NCc4ccccc4Cl)ncc23)CC1` as well?
> 5.30

Would you mind doing `O=C(NCc1ccco1)C1CCN(c2nccc3nc(NCc4ccccc4)ncc23)CC1` as well?
> 4.52

Would you mind doing O=C(NCc1cccnc1)C1CCCN(c2nccc3nc(NCc4ccccc4Cl)ncc23)C1 (stereo not drawn) as well?
> 5.30

Would you mind doing `Fc1ccc(CNc2ncc3c(Nc4ccc5c(c4)OCO5)nccc3n2)cc1` as well?
> 4.52

Would you mind doing `CC(C)OCCCNc1nccc2nc(NCc3ccccc3Cl)ncc12` as well?
> 4.52

----------
Would you kindly list pIC50 for each of these molecules?
Target: recombinant autotaxin (Homo sapiens)
Assay: Autotaxin assay (Amplex Red, LPC substrate)
Conditions: 75 μM LPC, Amplex Red fluorescence, ten 1:3 dilutions starting at 30 μM
pIC50: −log10 of the molar value.

Name the reported pIC50 value associated with the molecule O=C(C1CCCN(c2nccc3nc(NCc4ccccc4Cl)ncc23)C1)N1CCN(c2ccccn2)CC1 (centres unmarked)
> 5.30

Would you mind doing `O=C(C1CCN(c2nccc3nc(NCc4ccccc4Cl)ncc23)CC1)N1CCC[C@H]1CN1CCCC1` as well?
> 4.52

Would you mind doing `O=C(Cc1ccncc1)N1CCN(c2nccc3nc(NCc4ccccc4Cl)ncc23)CC1` as well?
> 4.52

Would you mind doing CCN(CC)C(=O)C1CCCN(c2nccc3nc(NCc4ccccc4Cl)ncc23)C1 (centres unmarked) as well?
> 4.52

Would you mind doing `Fc1ccc(Nc2nccc3nc(NCc4ccc(Cl)cc4)ncc23)cc1F` as well?
> 4.52

Would you mind doing `Fc1ccc(CNc2ncc3c(Nc4ccccc4F)nccc3n2)cc1` as well?
> 4.52

Would you mind doing `O=C(N1CCOCC1)N1CCN(c2nccc3nc(NCc4ccccc4Cl)ncc23)CC1` as well?
> 5.30

Would you mind doing `CNC(=O)C1CCN(c2nccc3nc(NCc4ccccc4Cl)ncc23)CC1` as well?
> 4.52

Would you mind doing `Fc1ccc(CNc2ncc3c(N4CCCC4)nccc3n2)cc1` as well?
> 4.52

Would you mind doing `Fc1ccc(CNc2ncc3c(NCc4ccc5nonc5c4)nccc3n2)cc1` as well?
> 4.52

Would you mind doing `CS(=O)(=O)CS(=O)(=O)N1CCN(c2nccc3nc(NCc4ccccc4Cl)ncc23)CC1` as well?
> 4.52

Would you mind doing `CN(C)C(=O)CCC(=O)N1CCN(c2nccc3nc(NCc4ccccc4Cl)ncc23)CC1` as well?
> 4.52

Would you mind doing `COc1ccccc1CNc1ncc2c(Nc3ccc(OC)c(OC)c3)nccc2n1` as well?
> 4.52

Would you mind doing `O=C(Nc1cccnc1)C1CCN(c2nccc3nc(NCc4ccc(Cl)cc4)ncc23)CC1` as well?
> 5.30

Would you mind doing `COc1ccc(CNc2ncc3c(Nc4ccc(F)cc4F)nccc3n2)cc1` as well?
> 4.52

Would you mind doing `COc1ccc(Nc2nccc3nc(NCc4ccc(F)cc4)ncc23)cc1OC` as well?
> 4.52

Would you mind doing `CCOCCCNC(=O)C1CCN(c2nccc3nc(NCc4ccccc4OC)ncc23)CC1` as well?
> 4.52

----------
Target: recombinant autotaxin (Homo sapiens, UniProt Q13822)
Test: Autotaxin assay (Amplex Red, LPC substrate)
Details: 75 μM LPC, Amplex Red fluorescence, ten 1:3 dilutions starting at 30 μM
Would you kindly list IC50 for each of these compounds?

What IC50 appears in the records for this compound with recombinant autotaxin (Homo sapiens, UniProt Q13822)? `O=C(Cc1ccccn1)N1CCN(c2nccc3nc(NCc4ccccc4Cl)ncc23)CC1`
< 5 µM

Would you mind doing `O=C(C1CCN(c2nccc3nc(NCc4ccc(Cl)cc4)ncc23)CC1)N1CCCC1` as well?
< 5 µM

Would you mind doing `COc1ccccc1CNc1ncc2c(N3CCC(C(=O)NCc4ccco4)CC3)nccc2n1` as well?
< 30 µM

Would you mind doing O=C(Nc1cccnc1)C1CCCN(c2nccc3nc(NCc4ccccc4Cl)ncc23)C1 (centres unmarked) as well?
< 5 µM

Would you mind doing `COCCNC(=O)C1CCN(c2nccc3nc(NCc4ccccc4Cl)ncc23)CC1` as well?
< 5 µM

Would you mind doing `COc1ccc(CNc2ncc3c(Nc4ccc(OC)cc4OC)nccc3n2)cc1` as well?
< 30 µM

Would you mind doing `CC(=O)OCC(=O)N1CCN(c2nccc3nc(NCc4ccccc4Cl)ncc23)CC1` as well?
< 5 µM

Would you mind doing `CCCN1CCN(C(=O)C2CCN(c3nccc4nc(NCc5ccccc5Cl)ncc34)CC2)CC1` as well?
< 10 µM

----------
Biological target: recombinant autotaxin (Homo sapiens)
Assay: Autotaxin assay (Amplex Red, LPC substrate)
Details: 75 μM LPC, Amplex Red fluorescence, ten 1:3 dilutions starting at 30 μM
measured-attribute: IC50

What IC50 appears in the records for this compound with recombinant autotaxin (Homo sapiens)? `COc1ccccc1CNc1ncc2c(Nc3ccc(F)cc3)nccc2n1`
< 30 µM

Would you mind doing `O=C(OCc1cccnc1)N1CCN(c2nccc3nc(NCc4ccccc4Cl)ncc23)CC1` as well?
< 30 µM

Would you mind doing `COc1ccc(Nc2nccc3nc(NCc4ccccc4)ncc23)cc1OC` as well?
< 30 µM

Would you mind doing `O=C(NCc1cccnc1)C1CCN(c2nccc3nc(NCc4ccccc4Cl)ncc23)CC1` as well?
< 5 µM

Would you mind doing `O=C(NCc1ccco1)N1CCN(c2nccc3nc(NCc4ccccc4Cl)ncc23)CC1` as well?
< 30 µM

Would you mind doing `O=C(NCc1ccc(F)cc1Cl)C1CCN(c2nccc3nc(NCc4ccccc4Cl)ncc23)CC1` as well?
< 30 µM

Would you mind doing `COc1ccccc1CNc1ncc2c(Nc3ccccc3C)nccc2n1` as well?
< 30 µM

Would you mind doing `COCCNC(=O)C1CCN(c2nccc3nc(NCc4ccccc4OC)ncc23)CC1` as well?
< 30 µM

Would you mind doing `CC(=O)c1ccc(Nc2nccc3nc(NCc4ccccc4Cl)ncc23)cc1` as well?
< 30 µM

Would you mind doing `O=C(NCc1ccco1)C1CCN(c2nccc3nc(NCc4ccccc4Cl)ncc23)CC1` as well?
< 5 µM

Would you mind doing `Cc1cc(F)ccc1Nc1nccc2nc(NCc3ccccc3)ncc12` as well?
< 30 µM

Would you mind doing `c1ccc(CNc2ncc3c(Nc4ccc5c(c4)OCO5)nccc3n2)cc1` as well?
< 30 µM

Would you mind doing `COc1ccc(Nc2nccc3nc(NCc4ccccc4OC)ncc23)c(OC)c1` as well?
< 30 µM

Would you mind doing `Cn1cc(CCC(=O)N2CCN(c3nccc4nc(NCc5ccccc5Cl)ncc34)CC2)cn1` as well?
< 30 µM

Would you mind doing `COc1ccccc1CNc1ncc2c(N3CCC(C(=O)Nc4cc(C)on4)CC3)nccc2n1` as well?
< 30 µM

Would you mind doing `Cc1cc(F)ccc1Nc1nccc2nc(NCc3ccc(F)cc3)ncc12` as well?
< 30 µM

Would you mind doing `COc1ccc(Nc2nccc3nc(NCc4ccc(Cl)cc4)ncc23)cc1OC` as well?
< 30 µM

Would you mind doing `CCN1CCN(C(=O)C2CCN(c3nccc4nc(NCc5ccccc5Cl)ncc34)CC2)CC1` as well?
< 5 µM

----------
Biological target: recombinant autotaxin (Homo sapiens)
Experiment: Autotaxin assay (Amplex Red, LPC substrate)
Conditions: 75 μM LPC, Amplex Red fluorescence, ten 1:3 dilutions starting at 30 μM
pIC50: −log10 of the molar value.
measured-attribute: pIC50

Name the reported pIC50 value associated with the molecule Clc1ccc(CNc2ncc3c(Nc4ccc5c(c4)OCO5)nccc3n2)cc1 [Compound 46]
> 4.52

Would you mind doing Clc1ccccc1CNc1ncc2c(N3CCCC3)nccc2n1 [Compound 8] as well?
> 5.30

Would you mind doing COc1ccc(Nc2nccc3nc(NCc4ccc(F)cc4)ncc23)cc1 [Compound 23] as well?
> 4.52

Would you mind doing O=C(Cc1cccnc1)N1CCN(c2nccc3nc(NCc4ccccc4Cl)ncc23)CC1 [Compound 121] as well?
> 5.30

Would you mind doing COCCCNC(=O)C1CCN(c2nccc3nc(NCc4ccccc4Cl)ncc23)CC1 [Compound 73] as well?
> 5.30

----------
Target: recombinant autotaxin (Homo sapiens, UniProt Q13822)
Assay: Autotaxin assay (Amplex Red, LPC substrate)
Conditions: 75 μM LPC, Amplex Red fluorescence, ten 1:3 dilutions starting at 30 μM
measured-attribute: IC50

Name the reported IC50 value associated with the compound `O=C(CN1CCN(c2nccc3nc(NCc4ccccc4Cl)ncc23)CC1)Nc1cccnc1`
< 10 µM

Would you mind doing `O=C(O)CN1CCN(c2nccc3nc(NCc4ccccc4Cl)ncc23)CC1` as well?
< 10 µM

Would you mind doing `O=C(NC1CC1)C1CCN(c2nccc3nc(NCc4ccccc4Cl)ncc23)CC1` as well?
< 10 µM

Would you mind doing `Cc1ccccc1Nc1nccc2nc(NCc3ccc(Cl)cc3)ncc12` as well?
< 30 µM

Would you mind doing `Clc1ccccc1CNc1ncc2c(NCCCN3CCCCC3)nccc2n1` as well?
< 30 µM

Would you mind doing `COc1ccc(Nc2nccc3nc(NCc4ccc(Cl)cc4)ncc23)cc1` as well?
< 30 µM

Would you mind doing `O=C(NCc1ccco1)C1CCN(c2nccc3nc(NCc4ccc(Cl)cc4)ncc23)CC1` as well?
< 30 µM

Would you mind doing `Fc1ccc(CNc2ncc3c(Nc4ccc(F)cc4)nccc3n2)cc1` as well?
< 30 µM

Would you mind doing `COc1ccccc1CNc1ncc2c(Nc3ccc(F)cc3C)nccc2n1` as well?
< 30 µM
